// provenance: PubChem BioAssay (NCI)

Quick list: TGI per entry.
- Tested on: A549 NSCLC
- Method description: NCI tumour cell line growth inhibition, 48 h
Readout type: TGI

{"Molecule": "O=C(Nc1ccc(S(=O)(=O)/N=c2\\ncccn2C(=O)C(C(F)(F)F)C(F)(F)F)cc1)C(C(F)(F)F)C(F)(F)F", "Result": "> 100 µM"}
{"Molecule": "COC(=O)C1OC(O[C@H]2CC[C@]3(C)[C@H]4CC=C5[C@@H]6CC(C)(C)CC[C@]6(C(=O)OC6OCC(O)C(O)C6OC6OC(C)C(OC7OCC(O)C(O)C7O)C(OC7OCC(O)(CO)C7O)C6O)[C@H](O)C[C@@]5(C)[C@]4(C)CC[C@H]3C2(C)C)C(O)C(O)C1O (some centres not stated)", "Result": "12.6 µM"}
{"Molecule": "Cn1cc(C2=C(Nc3ccccc3)C(=O)NC2=O)c2ccccc21", "Result": "> 25 µM"}
{"Molecule": "CC(C)(C)OC(=O)NCc1cccc(N=C=S)c1", "Result": "72.1 µM"}
{"Molecule": "COc1ccc(CCN2CCC(CN(C)Cc3cnn(-c4ccccc4)c3)CC2)cc1", "Result": "48.9 µM"}
{"Molecule": "COc1cc2ccnc3c(=C(SC)SC)c(=O)c(c1OC)c23", "Result": "> 100 µM"}
{"Molecule": "COc1cc(C)c2sc3ccccc3c(=O)c2c1NCCN(C)C", "Result": "15.7 µM"}
{"Molecule": "O=c1c2cc3c(cc2c2cccc4c2n1CCC4)OCO3", "Result": "> 100 µM"}
{"Molecule": "COc1ccc(C2C(=O)c3c(OC)cc(OC)cc3OC2c2cccnc2)cc1 (configuration not stated)", "Result": "> 100 µM"}
{"Molecule": "CCCCCCCCCCCCCC[n+]1ccc(C)cc1", "Result": "2.94 µM"}
{"Molecule": "COc1c(N2CCN(CN3C(=O)C(=O)c4cc(Cl)ccc43)C(C)C2)c(F)cc2c(=O)c(C(=O)O)cn(C3CC3)c12 (configuration not stated)", "Result": "> 100 µM"}
{"Molecule": "CC(Oc1ccccc1)C(=O)NNC(=O)OC(C)(C)C (configuration not stated)", "Result": "> 100 µM"}
{"Molecule": "OC1COC2CC(Nc3ccccn3)OC12 (configuration not stated)", "Result": "> 100 µM"}
{"Molecule": "COc1cc(-c2c3c(cc4c2OCO4)[C@@H](Nc2ccc(-c4ccc(-c5ccc(N[C@@H]6c7cc8c(cc7C(c7cc(OC)c(O)c(OC)c7)[C@H]7C(=O)OC[C@H]67)OCO8)cc5)cc4)cc2)[C@H]2COC(=O)[C@@H]2C3)cc(OC)c1O (some centres not stated)", "Result": "12.6 µM"}
{"Molecule": "CSc1nc(N)c2c(-c3ccccc3)c3c(nc2n1)CCCC3", "Result": "> 100 µM"}
{"Molecule": "O=C1CN(c2cccc(Cl)c2)C(=O)CN1NCNN1CC(=O)N(c2cccc(Cl)c2)CC1=O", "Result": "> 100 µM"}
{"Molecule": "CN(CCc1ccccn1)C(=S)N/N=C(\\c1ccccc1)c1ccccn1", "Result": "8.42 µM"}
{"Molecule": "O=Cc1ccc(-c2ccc(-c3nc4ccccc4s3)cc2)s1", "Result": "> 100 µM"}
{"Molecule": "c1ccc(OCc2nnc3n2N=C(c2ccccc2)CS3)cc1", "Result": "> 100 µM"}
{"Molecule": "CC(C)c1ccccc1SCc1cc(=O)cc(CSc2ccccc2C(C)C)o1", "Result": "> 100 µM"}
{"Molecule": "COc1cc(Cl)cc(-c2nn(-c3cccc(NC(=O)Nc4ccc(Cl)c(Cl)c4)c3)cc2-c2ccncc2)c1", "Result": "15.3 µM"}
{"Molecule": "Nc1nc(Cl)c(Cl)c(NCC2(O)CCC2)n1", "Result": "> 100 µM"}
{"Molecule": "COc1ccccc1C1(c2c(OC)c(=O)c2=O)SCCCS1", "Result": "> 100 µM"}
{"Molecule": "Cc1cccc2c3c(sc12)C(c1ccc(F)cc1)C(C#N)=C(N)O3 (configuration not stated)", "Result": "14.1 µM"}
{"Molecule": "Brc1cccc(C2ON=C(c3ccccc3)N2C23CC4CC(CC(C4)C2)C3)c1 (configuration not stated)", "Result": "> 10 µM"}
{"Molecule": "COc1cccc(SSc2cccc(OC)c2C(=O)O)c1C(=O)O", "Result": "> 100 µM"}
{"Molecule": "Cl.Fc1c[c-]c(-c2ccccn2)c(F)c1.[Pt].c1ccc([PH+](C[PH+](c2ccccc2)c2ccccc2)c2ccccc2)cc1", "Result": "1.34 µM"}
{"Molecule": "O=c1[nH]c(NCc2ccc(Cl)cc2)nc2nc[nH]c12", "Result": "> 100 µM"}
{"Molecule": "CC(=O)O[C@H]1CC[C@@]2(C)C(=C/C(=N/OCCN3CCCC3)[C@H]3[C@@H]4CC[C@H](OC(C)=O)[C@@]4(C)CC[C@@H]32)C1", "Result": "> 100 µM"}
{"Molecule": "COc1nc2ccc(COc3ccc(C(=O)O)cc3)cc2nc1OC", "Result": "> 100 µM"}
{"Molecule": "O=C(CCCN1CCC(C(O)c2ccc(F)cc2)CC1)c1ccc(F)cc1 (configuration not stated)", "Result": "123 µM"}
{"Molecule": "CCOC(=O)C1(C#N)CC1", "Result": "> 100 µM"}
{"Molecule": "CC(=O)/C=C/c1ccc(OCc2ccc(Cl)cc2)cc1", "Result": "> 1000 µM"}
{"Molecule": "COC1(CC[C@@H](C)COC2OC(CO)C(O)C(O)C2O)O[C@H]2C[C@H]3[C@@H]4CC=C5C[C@@H](OC6OC(CO)C(O)C(OC7OC(CO)C(O)C(O)C7O)C6OC6OC(C)C(O)C(O)C6O)CC[C@]5(C)[C@H]4CC[C@]3(C)[C@H]2[C@@H]1C (some centres not stated)", "Result": "9.36 µM"}
{"Molecule": "CCCCOC1OC(COC(=O)C(C)C)C(OC(=O)C(C)C)C(O)C1OC1OC(C)C(OC(=O)CCC)C(OC(=O)C(C)C)C1O (configuration not stated)", "Result": "26.5 µM"}
{"Molecule": "COc1cc2c(c(OC)c1OC)-c1ccc(N=NC(N)=S)c(=O)cc1[C@@H](NC(C)=O)CC2", "Result": "> 100 µM"}
{"Molecule": "CCC(C)C(=O)OCC(=O)c1ccc(-c2ccccc2)cc1 (configuration not stated)", "Result": "> 100 µM"}
